# key: entry, value: z-score
Assay: yeast growth modulation, basal conditions, primary screen, YJM789 clinical isolate, OD600, 24 h (AID 1089);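 also: growth of clinical yeast isolate S. cerevisiae YJM 789 seeded 1000 cells per well; test concentration not given here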
Conditions: S. cerevisiae YJM789 growth, higher = more signal, called active from +8 up or from −8 down
Lab note: jot the number down without any unit.

Consider the worked cases shown below.
molecule: CC(C)=CCCC(C)=CCON=C1C[C@@H](O)[C@@H](O)[C@@H]2[C@@H]3C(=O)N([C@@H](C)c4ccccc4)C(=O)[C@@H]3CC[C@@H]12
z-score: -0.208

molecule: C[C@H]1CC[C@@H](C(=O)O)N[C@@H]1c1cccc(N2CCCC2=O)c1
z-score: 0.31

molecule: O=C(NN=C1C[C@@H](O)[C@@H](O)[C@@H]2[C@@H]3C(=O)N(Cc4ccccc4)C(=O)[C@@H]3CC[C@H]12)OCc1ccccc1
z-score: -0.79

Alright, here's another compound for you.
# input compound: C=C(C)C(=O)OC[C@H]1CN2[C@@H](CC[C@@H](C)[C@@H]2c2ccc(Br)cc2)C(=O)O1 ; wanted: its z-score
0.0739

* * *

Assay: A549 lung cancer cell viability effects, profiling panel, resazurin fluorescence, 24 h, PK04 Diversity Set (AID 1171); also: test concentration not given here
Conditions: higher = more signal, called active from +8 up or from −8 down
Decide using z-score: a value greater than or equal to 0.2 is Criterion met, a smaller one is Criterion not met.

molecule: CC(CCN1CCCc2nc(C)c(C)cc21)=NOC[C@@H](C)[C@H](OCc1ccccc1)C(C)C
class_name: Criterion not met
//
molecule: CC(CCN1CCCCc2nc(C)c(C)cc21)=NO[C@@H](C)c1cc(-c2c(C)cc(C)cc2C)no1
class_name: Criterion met
//
molecule: CC(C)C(=O)N[C@H]1CCCN1C(=O)C=Cc1ccccc1
class_name: Criterion not met
//
molecule: CC(=O)OC[C@H]1O[C@H](CC=NOC(C)CN2CCCc3nc(C)c(C)cc32)C=C[C@@H]1OC(C)=O (stereo partly drawn)
class_name: Criterion not met
//
molecule: CCOC(=O)[C@H](CC(C)C)NC(=O)CCC1CC(OC(=O)NCc2ccc3c(c2)OCO3)CC2(CCCC(COC(=O)NCCc3ccc(Cl)cc3)O2)O1 (stereo partly drawn)
class_name: Criterion met

Check if z-score >= 0.2 (inclusive). Item: O=C1[C@H]2CCn3c(=O)n(Cc4cc5c(cc4Cl)OCO5)c(=O)n3[C@H]2[C@H](O)[C@@H]2O[C@H]12
Criterion not met

Record CCOC(=O)[C@H](Cc1ccccc1)NC(=O)CCC1CC(OC(=O)NCc2cccc3ccccc23)CC2(CCCC(COC(=O)NCC3CCCCC3)O2)O1 (stereo partly drawn) ; criterion: z-score no lower than 0.2. Met?
Criterion met

Kindly determine if z-score recorded for COC(=O)CC=C[C@@H](C)[C@@H](C=NOC[C@@H](O)[C@H]1O[C@@H]2OC(C)(C)O[C@@H]2[C@H]1O)OC is above or exactly 0.2.
Criterion not met

* * *

Tested on: Sam68 (KHDRBS1)
Test: Sam68 small-molecule binders, primary screen, biochemical, small-molecule microarray, 635 nm fluorescence (AID 1125);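 also: score merges 667 nm channel intensity with signal to noise over triplicate slides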
Details: small-molecule microarray binding, higher = more signal
Entries annotated with measured composite z-score

Check out these entries, answers already filled in.
compound: CC(C)=NOC(C)CN1CCCc2nc(C)c(C)cc21 (stereo not given)
assayed_target: Sam68 (KHDRBS1)
composite z-score: 0.669
//
compound: CC(=O)OC[C@H]1O[C@H](CC=NO[C@@H](C)c2cc(-c3c(C)cc(C)cc3C)no2)C=C[C@@H]1OC(C)=O
assayed_target: Sam68 (KHDRBS1)
composite z-score: -0.177
//
compound: Cc1ccc2[nH]c3nc(CCCn4ccnc4-c4ccccc4)nnc3c2c1
assayed_target: Sam68 (KHDRBS1)
composite z-score: 1.05
//
compound: O=C1[C@H]2[C@H]3[C@H](O)[C@H](O)CC(=NOC[C@@H](O)COCc4ccco4)[C@@H]3CC[C@H]2C(=O)N1c1cccc(Oc2ccccc2)c1
assayed_target: Sam68 (KHDRBS1)
composite z-score: -1.43
//
compound: CCOC(=O)[C@H](CC(C)C)NC(=O)CCC1CC(OC(=O)NCCc2ccc(F)cc2)CC2(CCCC(COC(=O)NCCCN3CCCC3=O)O2)O1 (stereo not given in full)
assayed_target: Sam68 (KHDRBS1)
composite z-score: 0.883

Using the record for CCOC(=O)[C@H](Cc1ccccc1)NC(=O)CCC1CC(OC(=O)NCc2cccc3ccccc23)CC2(CCCC(COC(=O)NCCc3ccc(Cl)cc3)O2)O1 (stereo not given in full) , report its composite z-score.
1.08

* * *

Listed here: items and their measured composite z-score.
Target: Calmodulin-1 (Homo sapiens)
Test: calcium-bound CALM1 binders on microarrays, profiling panel, artefact control for SMM control-protein annotation, biochemical, small-molecule microarray, Cy5-labelled CALM1, plus calcium (AID 1112);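 also: score merges spot fluorescence with signal to noise from triplicate slides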
Settings: Cy5-CALM1 binding fluorescence, higher = more signal
Reply: number alone, nothing else.

Item under review: O=C1C2=CC[C@H]3C(=O)N(C[C@@H]4CCCO4)C(=O)[C@H]3[C@H]2[C@H](O)[C@@H]2O[C@H]12 . Reported composite z-score?
-1.13

Please give the measured composite z-score for this compound: CC(C)CON=C1[C@H]2CCn3c(=O)n(C)c(=O)n3[C@H]2[C@H](O)[C@@H]2O[C@H]12
-0.609

Param item = COc1ccc(O[C@H]2C=C[C@@H](c3ccccc3)O[C@@H]2COC(=O)CCC(C)=NOC[C@@H](O)COCc2ccco2)cc1 ; retrieve measured composite z-score.
-2.04

Item CO[C@H]1COC(=O)CCC[C@H](C)[C@H](OC)COC(=O)CC=C[C@@H]1C has what recorded composite z-score?
-1.2

* * *

Test: Plasmodium falciparum growth inhibition, primary screen, strain 3D7, DAPI fluorescence, 100 nL (AID 1184);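 also: parasites grown inside human red blood cells in medium with human serum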
Details: P. falciparum 3D7 growth, 3 d, higher = more signal
Each entry below lists one item and its recorded z-score value.
# respond with the number and nothing more

As a guide, the following entries are already answered.
compound: CC(CCC(=O)OC[C@H]1O[C@H](C#Cc2ccccc2)C=C[C@@H]1Oc1ccc(C)cc1)=NOC(C)CN1CCCCc2nc(C)c(C)cc21 (stereo not given in full)
measured_attribute: z-score
value_reported: -2.06
--
compound: CCOC(=O)[C@H](Cc1ccccc1)NC(=O)CCC1CC(OC(=O)NCc2cccc3ccccc23)CC2(CCCC(COC(=O)NCCc3ccccc3OC)O2)O1 (stereo not given in full)
measured_attribute: z-score
value_reported: -1.95
--
compound: CCCNC(=O)OC[C@H]1O[C@H](CCON=C[C@@H](C)[C@H](OCc2ccccc2)C(C)C)C=C[C@@H]1Oc1ccc(OC)cc1
measured_attribute: z-score
value_reported: -0.591
--
compound: CC1(C)O[C@H]2O[C@H]([C@H](O)CON=C3[C@H]4CCn5c(=O)n(-c6ccccc6)c(=O)n5[C@H]4[C@H](O)[C@@H]4O[C@H]34)[C@H](O)[C@H]2O1
measured_attribute: z-score
value_reported: -0.511
--
compound: CC(C)CON=C1C[C@@H](O)[C@@H](O)[C@@H]2[C@@H]3C(=O)N([C@@H](C)c4ccccc4)C(=O)[C@@H]3CC[C@@H]12
measured_attribute: z-score
value_reported: -0.274
--
compound: COCC#Cc1ccc([C@@H]2N[C@H](C(=O)O)CC[C@H]2C)cc1
measured_attribute: z-score
value_reported: 0.383
--
compound: O=C1C=C[C@@H](O)[C@@H]2[C@@H]3C(=O)N(Cc4ccc5c(c4)OCO5)C(=O)[C@@H]3CC[C@@H]12
measured_attribute: z-score
value_reported: -0.786
--
compound: CC#CCOCCC=C1c2ccccc2[C@@H](OC)[C@@H]1C
measured_attribute: z-score
value_reported: -1.02

Would you kindly share the measured z-score for C#CCCCON=C1C[C@@H](O)[C@@H](O)[C@@H]2[C@@H]3C(=O)N(CC)C(=O)[C@@H]3CC[C@H]12 ?
-0.263

Fill in the blank: the reported z-score of CCOC(=O)CCN1C(=O)[C@H]2[C@H]3[C@H](O)[C@H](O)CC(=NO[C@@H]4O[C@H](CO)[C@@H](O)[C@H](O)[C@H]4O)[C@@H]3CC[C@H]2C1=O is ____.
0.434

Quick one: z-score of CO[C@H]1COC(=O)CCC[C@H](C)[C@H](OC)COC(=O)CC=C[C@@H]1C ?
-0.116

Consider the compound shown here: COC(=O)[C@H](C)NC(=O)CCC1CC(OC(=O)NCc2cccc3ccccc23)CC2(CCCC(COC(=O)NCCC(C)C)O2)O1 (stereo not given in full) What is its recorded z-score?
-1.57

Recorded z-score of COc1ccc(O[C@H]2C=C[C@@H](c3ccccc3)O[C@@H]2COC(=O)CCC(C)=NOC[C@@H](O)COCc2ccco2)cc1 , please.
0.048

I would be grateful if you could share the reported z-score for C[C@]12CCC3c4ccc(OCC5CO5)cc4CCC3C1CC[C@@H]2O (stereo not given in full) .
0.0788

Entry CO[C@H]1C[C@@H]2C[C@H](O)CC(CC(=O)O[C@@H](C=CCC(C)C)C[C@@H]3CC[C@H](C)[C@@H](C1)O3)O2 has what z-score?
-0.825
